system name: recombinant human MMP-2 (Homo sapiens)
Sequence (P08253 110-660): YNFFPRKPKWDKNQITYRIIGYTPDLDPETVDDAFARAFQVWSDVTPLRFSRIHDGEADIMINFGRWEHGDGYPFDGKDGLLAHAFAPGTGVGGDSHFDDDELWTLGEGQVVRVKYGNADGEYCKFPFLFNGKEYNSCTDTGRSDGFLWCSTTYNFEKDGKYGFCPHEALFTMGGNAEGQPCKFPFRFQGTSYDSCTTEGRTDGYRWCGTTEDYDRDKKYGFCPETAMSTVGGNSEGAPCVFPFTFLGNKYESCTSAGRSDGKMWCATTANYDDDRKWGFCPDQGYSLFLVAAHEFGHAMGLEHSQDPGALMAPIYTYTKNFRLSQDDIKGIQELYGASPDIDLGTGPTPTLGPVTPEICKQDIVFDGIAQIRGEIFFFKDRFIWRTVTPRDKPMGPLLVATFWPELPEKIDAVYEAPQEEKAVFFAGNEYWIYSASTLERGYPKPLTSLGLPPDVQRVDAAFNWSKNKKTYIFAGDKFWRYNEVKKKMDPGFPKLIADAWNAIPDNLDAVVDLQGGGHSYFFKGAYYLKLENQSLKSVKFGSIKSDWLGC
assay method text: biochemical
applied conditions: Inhibition Table B; read-out: MMP-2 IC50
Structures can show the parent of a compound that is named as a salt.
The compounds listed here are annotated with their IC50.
readout kind: IC50 (nM)

{"compound": "O=C(CN1CCCC1)N1CCC(C(=O)NO)(S(=O)(=O)c2ccc(Oc3ccccc3)cc2)CC1 [Example 31, Monohydrochloride]", "readout kind": "IC50", "sign qualifier": "<", "recorded value": 0.1}
{"compound": "O=Cc1cccc(-c2ccc(S(=O)(=O)C3(C(=O)NO)CCOCC3)cc2)c1", "readout kind": "IC50", "sign qualifier": "<", "recorded value": 1}
{"compound": "O=C(NO)C1(S(=O)(=O)c2ccc(Oc3ccc(F)c(F)c3)cc2)CCOCC1", "readout kind": "IC50", "sign qualifier": "<", "recorded value": 0.1}
{"compound": "O=C(NO)C1(S(=O)(=O)c2ccc(Oc3ccccc3)cc2)CCOCC1", "readout kind": "IC50", "sign qualifier": "<", "recorded value": 0.1}
{"compound": "O=C(NO)C1(S(=O)(=O)c2ccc(-c3cccc(C(F)(F)F)c3)cc2)CCOCC1", "readout kind": "IC50", "sign qualifier": "<", "recorded value": 1}
{"compound": "Cl.O=C(NO)C1(S(=O)(=O)c2ccc(Oc3ccc(-n4ccnc4)cc3)cc2)CCOCC1 [Example 99, Monohydrochloride]", "readout kind": "IC50", "sign qualifier": "=", "recorded value": 0.4}
{"compound": "COCCN1CCC(C(=O)NO)(S(=O)(=O)c2ccc(Oc3ccccc3)cc2)CC1", "readout kind": "IC50", "sign qualifier": "=", "recorded value": 0.1}
{"compound": "C=CCN1CCC(C(=O)NO)(S(=O)(=O)c2ccc(Oc3ccc(Cl)c(C)c3)cc2)CC1 [Example 82, Monohydrochloride]", "readout kind": "IC50", "sign qualifier": "=", "recorded value": 0.1}
{"compound": "O=C(O)CN1CCC(C(=O)NO)(S(=O)(=O)c2ccc(Sc3ccccc3)cc2)CC1 [Example 87, Monohydrochloride]", "readout kind": "IC50", "sign qualifier": "=", "recorded value": 0.8}
{"compound": "O=C(NO)C1(S(=O)(=O)c2ccc(Oc3ccccc3)cc2)CCSCC1", "readout kind": "IC50", "sign qualifier": "=", "recorded value": 0.1}
{"compound": "O=C(NO)C1(S(=O)(=O)c2ccc(Sc3ccccc3)cc2)CCSCC1", "readout kind": "IC50", "sign qualifier": "=", "recorded value": 76.9}
{"compound": "O=C(O)CCc1ccc(Oc2ccc(S(=O)(=O)C3(C(=O)NO)CCOCC3)cc2)cc1", "readout kind": "IC50", "sign qualifier": "=", "recorded value": 3500}
{"compound": "Cl.O=C(NO)C1(S(=O)(=O)c2ccc(Oc3ccc(Cl)cc3)cc2)CCNCC1 [Example 93, Monohydrochloride]", "readout kind": "IC50", "sign qualifier": "=", "recorded value": 0.4}
{"compound": "O=C(NO)C1(S(=O)(=O)c2ccc(N3CCN(CCO)CC3)cc2)CCOCC1", "readout kind": "IC50", "sign qualifier": "=", "recorded value": 37}
{"compound": "Nc1cc(C(F)(F)F)ccc1Sc1ccc(S(=O)(=O)C2(C(=O)NO)CCOCC2)cc1 [Example 61, Monohydrochloride]", "readout kind": "IC50", "sign qualifier": "=", "recorded value": 1500}

====

system name: recombinant human MMP-2 (Homo sapiens, UniProt P08253)
assay method text: biochemical
applied conditions: Inhibition Table B; read-out: MMP-2 IC50
pIC50: −log10 of the molar value. Counter-ions that a name gives are not always drawn.
The molecules listed here are annotated with their pIC50.
readout kind: pIC50

{"molecule": "CC(=O)N1CCN(c2ccc(Oc3ccc(S(=O)(=O)C4(C(=O)NO)CCOCC4)cc3)cc2)CC1 [Example 123, Trifluoroacetic Acid Salt]", "recorded value": 8.74}
{"molecule": "CC(C)N1CCC(C(=O)NO)(S(=O)(=O)c2ccc(Sc3ccccc3)cc2)CC1 [Example 34, Monohydrochloride]", "recorded value": 8.96}
{"molecule": "O=C(NO)C1(S(=O)(=O)c2ccc(Oc3ccc(F)c(Cl)c3)cc2)CCNCC1 [Example 84, Monohydrochloride]", "recorded value": 8.74}
{"molecule": "Cl.O=C(NO)C1(S(=O)(=O)c2ccc(Sc3ccncc3)cc2)CCOCC1 [Example 104, Monohydrochloride]", "recorded value": 8.82}

====

system name: recombinant human MMP-1 (Homo sapiens)
Construct: made in house; host or cells: transfected HT-1080 cells (provided by Dr. Harold Welgus, Washington University)
Sequence (P03956 100-469): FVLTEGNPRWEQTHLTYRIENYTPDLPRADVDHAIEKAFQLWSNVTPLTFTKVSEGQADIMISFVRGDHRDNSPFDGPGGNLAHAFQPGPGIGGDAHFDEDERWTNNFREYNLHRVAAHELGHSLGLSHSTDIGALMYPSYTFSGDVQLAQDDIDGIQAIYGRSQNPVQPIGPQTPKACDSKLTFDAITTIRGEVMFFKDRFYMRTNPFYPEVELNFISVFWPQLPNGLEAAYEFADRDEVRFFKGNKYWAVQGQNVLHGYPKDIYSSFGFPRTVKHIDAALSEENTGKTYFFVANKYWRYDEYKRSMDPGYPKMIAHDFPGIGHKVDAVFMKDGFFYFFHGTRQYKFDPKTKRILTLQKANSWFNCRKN
assay method text: biochemical
applied conditions: Inhibition Table B; read-out: MMP-1 IC50
Structures can show the parent of a compound that is named as a salt.

{"compound": "COc1ccc(Sc2ccc(S(=O)(=O)C3(C(=O)NO)CCOCC3)cc2)cc1", "IC50": "8 µM"}
{"compound": "O=C(NO)C1(S(=O)(=O)c2ccc(-c3ccsc3)cc2)CCOCC1", "IC50": "0.25 µM"}
{"compound": "C#CCN1CCC(Oc2ccc(S(=O)(=O)C3(C(=O)NO)CCOCC3)cc2)CC1 [Example 106, Monohydrochloride]", "IC50": "> 10 µM"}
{"compound": "Cc1ccccc1-c1ccc(S(=O)(=O)C2(C(=O)NO)CCOCC2)cc1", "IC50": "> 10 µM"}
{"compound": "COc1ccccc1N1CCN(c2ccc(S(=O)(=O)C3(C(=O)NO)CCOCC3)cc2)CC1", "IC50": "> 10 µM"}
{"compound": "O=C(NO)C1(S(=O)(=O)c2ccc(Sc3ccccc3)cc2)CCSCC1", "IC50": "> 10 µM"}
{"compound": "NCCc1ccc(Oc2ccc(S(=O)(=O)C3(C(=O)NO)CCS(=O)(=O)CC3)cc2)cc1 [Example 54, Monohydrochloride]", "IC50": "> 10 µM"}

====

system name: recombinant human MMP-9 (Homo sapiens)
Sequence (P14780 107-707 limits assumed): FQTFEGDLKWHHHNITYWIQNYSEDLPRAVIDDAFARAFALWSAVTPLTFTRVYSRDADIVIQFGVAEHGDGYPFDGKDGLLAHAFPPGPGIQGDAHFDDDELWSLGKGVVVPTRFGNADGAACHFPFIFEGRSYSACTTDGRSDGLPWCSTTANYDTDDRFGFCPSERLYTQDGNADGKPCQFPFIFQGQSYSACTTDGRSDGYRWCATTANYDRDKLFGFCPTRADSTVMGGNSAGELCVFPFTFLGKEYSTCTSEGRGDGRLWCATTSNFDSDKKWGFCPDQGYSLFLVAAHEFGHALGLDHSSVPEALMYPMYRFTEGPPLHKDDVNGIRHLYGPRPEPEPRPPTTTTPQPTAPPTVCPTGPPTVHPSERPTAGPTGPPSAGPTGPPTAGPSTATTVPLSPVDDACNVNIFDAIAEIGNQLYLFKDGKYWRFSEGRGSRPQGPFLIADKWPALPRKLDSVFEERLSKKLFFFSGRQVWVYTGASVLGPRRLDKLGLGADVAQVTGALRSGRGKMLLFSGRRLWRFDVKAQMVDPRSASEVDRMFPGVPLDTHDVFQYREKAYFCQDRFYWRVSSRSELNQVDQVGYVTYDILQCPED
assay method text: biochemical
applied conditions: Inhibition Table B; read-out: MMP-9 IC50
Structures can show the parent of a compound that is named as a salt.
For each record, check the reported IC50: if it is below 30 nM write Criterion met, else write Criterion not met.

{"molecule": "O=C(NO)C1(S(=O)(=O)c2ccc(NCc3ccccc3)cc2)CCOCC1 [Example 68, Monohydrochloride]", "class label": "Criterion not met"}
{"molecule": "CS(=O)(=O)N1CCC(C(=O)NO)(S(=O)(=O)c2ccc(Oc3ccc4c(c3)OCO4)cc2)CC1", "class label": "Criterion met"}
{"molecule": "COc1ccc(Sc2ccc(S(=O)(=O)C3(C(=O)NO)CCOCC3)cc2)cc1", "class label": "Criterion met"}
{"molecule": "NCC(=O)Nc1ccc(Sc2ccc(S(=O)(=O)C3(C(=O)NO)CCSCC3)cc2)cc1", "class label": "Criterion not met"}
{"molecule": "O=C(NO)C1(S(=O)(=O)c2ccc(Oc3cc(F)cc(F)c3)cc2)CCOCC1", "class label": "Criterion met"}
{"molecule": "O=C(NO)C1(S(=O)(=O)c2ccc(Sc3ccc(F)cc3)cc2)CCOCC1", "class label": "Criterion met"}
{"molecule": "Cl.O=C(NO)C1(S(=O)(=O)c2ccc(Sc3ccccc3)cc2)CCN(C2CC2)CC1 [Example 32, Monohydrochloride]", "class label": "Criterion met"}
{"molecule": "Cc1ccc(Oc2ccc(S(=O)(=O)C3(C(=O)NO)CN(C)CN(C)C3)cc2)cc1C [Example 78, Dihydrochloride]", "class label": "Criterion not met"}
{"molecule": "COCCN1CCC(C(=O)NO)(S(=O)(=O)c2ccc(Sc3ccccc3)cc2)CC1 [Example 35, Monohydrochloride]", "class label": "Criterion met"}
{"molecule": "CN1CCC(C(=O)NO)(S(=O)(=O)c2ccc(Sc3ccccc3)cc2)CC1.Cl [Example 33, Monohydrochloride]", "class label": "Criterion met"}
